# subject.of.test: T1, Mouse-Fc-tagged SARS-CoV2 S1-RBD (Sino Biologicals) recombinant protein (SARS-CoV-2, UniProt P0DTC2 319-541)
# T1 construct: domain: S1-RBD
# measurement.protocol: SPR, S1-RBD-mFc captured via anti-mouse-Fc antibody, 1:1 model
property: Kd (pM)
Give bare numbers, in pM.

Worked examples, 2 binders total:
binder | value.observed
P043.A.00023.E05 (antibody, V domains shown, also called 443; protein sample ID 443) VH: QSLEESGGRLVTPGTPLTLTCTVSGFSLSSYAMSWVRQAPGKGLEWIGIISSSGSTYYASWAKGRFTISKTSTTVDLKITSPTTEDTATYFCARDASSRGYYYYYGMDPWGPGTLVTVSS VL: AIQMTQSPSSLAASVGDTVTITCKASEDIGYGLNWYQQKLGIAPKLLIYGANTLESGVPSRFSGSGSETDYTLTISSVQAEDAGIYYCQQGYSTPLTFGAGTKVEIK | 268
P043.A.00017.E07 (protein sample ID 449) (antibody, V domains shown) VH: QSVEESGGRLVTPGTPLTLTCTVSGFSLSSYAMSWVRQAPGKGLEWIGIISSSGSTYYASWAKGRFTISKTSTTVDLKITSPTTEDTATYFCARAMYPGYSTGVYNIWGPGTLVTVSL VL: AIQMTQSPSSLAASVGDTVTITCKASEDIGYELNWYQQKLGIAPKLLIYGANTLESGVPSRFSGSGSETDYTLTISSVQAEDAGIYYCQQGYNTPNTFGAGTKVEIK | 308

Exam item: Could you please provide reported Kd for P043.A.00024.C11 (protein sample ID 451) (antibody, V domains shown) VH: QSVEESGGRLVTPGTPLTLTCTVSGFSLSSYAMSWVRQAPGKGLEWIGIISSSGTTYYASWAKGPFTISKTSTTVDLKITSPTTEDTATYFCARGGAGYGYAHYYGMDPWGPGTLVTVSS VL: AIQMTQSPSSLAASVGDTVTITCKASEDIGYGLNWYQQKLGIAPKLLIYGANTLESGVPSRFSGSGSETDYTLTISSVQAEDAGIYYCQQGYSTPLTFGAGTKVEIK ? Thanks!
Marked response: 770
